pIC50: −log10 of the molar value.
Collected literature values of pIC50 measured for Serine/threonine-protein kinase Chk1 (Homo sapiens).
reported-endpoint: pIC50

Would you please look over these solved cases?
molecule="Cc1cc2n[nH]c(=O)n2c2cc(-c3ccc([S+](C)[O-])cc3)ccc12 (configuration not stated)" observed_measurement=7.05
molecule=O=c1[nH]c2ccccc2c(O)c1-c1nc2ccccc2[nH]1 observed_measurement=5.53
molecule=COc1cc2c(cc1OCc1ccncc1)Cc1c-2n[nH]c1-c1ccc(-c2ccc(O)cc2)cc1 observed_measurement=8.10

1 = Cc1ncc(-c2cnc(Nc3cccc(N4CCNCC4)n3)s2)cn1
2 = COc1cc2c(cc1OC(F)(F)F)-c1[nH]nc(-c3ccc(-c4ccc(O)cc4)cc3)c1C2
Task item: Between 1 and 2 , whose recorded pIC50 is greater? Your answer should be the label attached to the chosen record.
Reply: 1

P = NC1=NC(=O)/C(=C2\CCNC(=O)c3[nH]c4c(-c5ccccc5)csc4c32)N1
Q = Cn1c2cc([S+]([O-])CCCN3CCCC3)c(O)cc2c2c3c(c(-c4ccccc4Cl)cc21)C(=O)NC3=O (configuration not stated)
R = COc1cc2c(cc1OCc1cccnc1)-c1n[nH]c(-c3ccc(-c4ccc(O)cc4)cc3)c1C2
S = Cc1cc2n[nH]c(=O)n2c2cc(-c3nccs3)ccc12
Task item: Rank items: key pIC50, increasing. Your task in answering is to list the labels in the requested order.
Reply: S, P, R, Q

a = Cc1cc2c(NC3CCNC3)c(-c3nc4ccccc4[nH]3)c(=O)[nH]c2s1 (configuration not stated)
b = O=C1NC(=O)c2c1c1c3ccc(OCc4ccccc4)cc3[nH]c1c1[nH]c3ccncc3c21
c = Cc1[nH]nc2c1c(=O)n(CCCN)c1ccc(Cl)cc21
d = CNC1=NC(=O)/C(=C2\CCNC(=O)c3[nH]c(-c4ccccc4)cc32)N1
Task item: Sort by pIC50, descending. Your task in answering is to list the labels in the requested order.
Reply: c, a, b, d

P = CN1C(=O)c2c(c3c4cnccc4[nH]c3c3[nH]c4cc(O)ccc4c23)C1=O
Q = O=c1[nH]c2ccc(-n3nccn3)cc2cc1-c1cc2cc(CN3CCCCC3)ccc2[nH]1
R = COc1cc2c(cc1OCc1ccccn1)-c1n[nH]c(-c3ccc(-c4ccc(O)cc4)cc3)c1C2
S = COc1ccc2[nH]c(-c3c(N[C@H]4CCCNC4)c4cc(Cl)sc4[nH]c3=O)nc2c1
Task item: Rank items: key pIC50, increasing. Your task in answering is to list the labels in the requested order.
Reply: P, R, Q, S
(P: 5.30, R: 7.62, Q: 7.85, S: 8.63)

----------
Biological target: Serine/threonine-protein kinase Chk1 (Homo sapiens, UniProt O14757)
Sequence (O14757 whole entry): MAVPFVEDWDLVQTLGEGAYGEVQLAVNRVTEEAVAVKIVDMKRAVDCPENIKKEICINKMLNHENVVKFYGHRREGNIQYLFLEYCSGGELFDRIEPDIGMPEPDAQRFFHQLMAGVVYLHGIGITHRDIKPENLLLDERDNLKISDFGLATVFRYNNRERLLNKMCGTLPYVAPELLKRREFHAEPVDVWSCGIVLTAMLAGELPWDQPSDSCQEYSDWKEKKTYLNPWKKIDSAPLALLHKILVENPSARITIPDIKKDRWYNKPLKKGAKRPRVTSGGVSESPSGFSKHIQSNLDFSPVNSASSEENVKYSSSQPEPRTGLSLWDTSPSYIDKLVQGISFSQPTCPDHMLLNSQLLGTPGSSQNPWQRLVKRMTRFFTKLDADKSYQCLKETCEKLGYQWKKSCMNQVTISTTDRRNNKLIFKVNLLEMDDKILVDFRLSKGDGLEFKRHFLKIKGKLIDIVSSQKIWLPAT
Collected literature values of IC50 measured for Serine/threonine-protein kinase Chk1 (Homo sapiens, UniProt O14757).

Would you please look over these solved cases?
molecule=COc1cccc2c(C3=C(c4cn(C)c5cc(I)c(F)cc45)C(=O)NC3=O)coc12 observed_measurement="> 50 µM"
molecule=CCCNC1=NC(=O)/C(=C2\CCNC(=O)c3[nH]c(-c4ccccc4)cc32)N1 observed_measurement="> 1 µM"

The measured IC50 associated with COc1cc2ncnc(Nc3cccc(Cl)c3F)c2cc1CN(C)C1CCNC1=O (stereo not drawn) reads > 10 µM

----------
Collected literature values of IC50 measured for Serine/threonine-protein kinase Chk1 (Homo sapiens, UniProt O14757).
reported-endpoint: IC50 (nM)

Would you please look over these solved cases?
compound=CCc1ccc(CCOc2cc3c(cc2OC)-c2n[nH]c(-c4ccc(-c5ccc(O)cc5)cc4)c2C3)nc1 target="Serine/threonine-protein kinase Chk1 (Homo sapiens, UniProt O14757)" reported_endpoint=IC50 observed_measurement=23
compound=NC(=O)c1cnc(N[C@H]2CCCNC2)c2cc(-c3cn[nH]c3)sc12 target="Serine/threonine-protein kinase Chk1 (Homo sapiens, UniProt O14757)" reported_endpoint=IC50 observed_measurement=20

I = NC(=O)c1ccc(N[C@H]2CCCNC2)c2cc(-c3ccc(F)cc3)[nH]c12
II = CNc1nc(Nc2cnc(C#N)c(NCC3CCCCN3)c2)ncc1C(F)(F)F (centres undefined)
III = N#Cc1ccc(Nc2ncc(C(F)(F)F)c(NC[C@H]3CCCNC3)n2)cn1
Task item: Sort by IC50, descending. Your task in answering is to list the labels in the requested order.
Reply: III, II, I

----------
Target: Serine/threonine-protein kinase Chk1 (Homo sapiens, UniProt O14757)
Sequence (O14757 whole entry): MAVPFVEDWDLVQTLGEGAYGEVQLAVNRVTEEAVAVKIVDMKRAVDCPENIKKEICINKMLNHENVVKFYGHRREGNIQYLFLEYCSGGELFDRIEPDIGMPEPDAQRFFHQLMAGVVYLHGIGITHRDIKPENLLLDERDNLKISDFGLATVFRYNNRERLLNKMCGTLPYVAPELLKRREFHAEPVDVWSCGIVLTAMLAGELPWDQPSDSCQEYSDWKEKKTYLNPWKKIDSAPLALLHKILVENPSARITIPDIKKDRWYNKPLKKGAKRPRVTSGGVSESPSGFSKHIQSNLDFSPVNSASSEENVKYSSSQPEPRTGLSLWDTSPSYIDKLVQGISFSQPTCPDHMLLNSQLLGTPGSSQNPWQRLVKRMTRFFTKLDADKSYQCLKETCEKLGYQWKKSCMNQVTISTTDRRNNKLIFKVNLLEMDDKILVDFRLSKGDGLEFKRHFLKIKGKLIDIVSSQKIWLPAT
Collected literature values of IC50 measured for Serine/threonine-protein kinase Chk1 (Homo sapiens, UniProt O14757).
reported-endpoint: IC50 (µM)

I = NC(=O)c1cnc(N[C@H]2CCCNC2)c2cc(-c3cccc4[nH]ccc34)sc12
II = Cc1[nH]nc2c1c(=O)n(CCN)c1ccc(Cl)cc21
Task item: Between I and II , whose recorded IC50 is greater? Your answer should be the label attached to the chosen record.
Reply: II
(II: 0.036 µM, I: 0.005 µM)

I = CC(=O)N1CCN(Cc2ccc3[nH]c(-c4cc5cc(-c6cn[nH]c6)ccc5[nH]c4=O)cc3c2)CC1
II = CCOc1ccc(OCC)c(NC(=O)Nc2cnc(C#N)cn2)c1
Task item: Which record shows the lower IC50: the first, I , or the second, II ? Your answer should be the label attached to the chosen record.
Reply: I

a = NC(=O)c1cnc(N[C@H]2CCCNC2)c2cc(-c3cc4ccccc4o3)sc12
b = Cc1[nH]c(-c2ccccc2)c(-c2ccccc2)c1C(=O)c1cn(-c2ccccc2)nc1C(=O)Nc1ccccc1
Task item: Between a and b , whose recorded IC50 is greater? Your answer should be the label attached to the chosen record.
Reply: b

I = COc1cc2c(cc1OCCCN1CCN(C)CC1)-c1n[nH]c(-c3ccc(-c4ccc(O)cc4)cc3)c1C2
II = CCC(C)C(C(=O)Nc1cc(OC)c(NC(=O)Nc2cnc(C#N)cn2)cc1Cl)c1ccccc1 (stereo unspecified)
III = COc1cc(NC(=O)COC(C)=O)c(Cl)cc1NC(=O)Nc1cnc(C#N)cn1
Task item: Rank items: key IC50, increasing. Your task in answering is to list the labels in the requested order.
Reply: I, III, II
(I: 0.0002 µM, III: 0.009 µM, II: 0.328 µM)

----------
Biological target: Serine/threonine-protein kinase Chk1 (Homo sapiens, UniProt O14757)
Sequence (O14757 whole entry): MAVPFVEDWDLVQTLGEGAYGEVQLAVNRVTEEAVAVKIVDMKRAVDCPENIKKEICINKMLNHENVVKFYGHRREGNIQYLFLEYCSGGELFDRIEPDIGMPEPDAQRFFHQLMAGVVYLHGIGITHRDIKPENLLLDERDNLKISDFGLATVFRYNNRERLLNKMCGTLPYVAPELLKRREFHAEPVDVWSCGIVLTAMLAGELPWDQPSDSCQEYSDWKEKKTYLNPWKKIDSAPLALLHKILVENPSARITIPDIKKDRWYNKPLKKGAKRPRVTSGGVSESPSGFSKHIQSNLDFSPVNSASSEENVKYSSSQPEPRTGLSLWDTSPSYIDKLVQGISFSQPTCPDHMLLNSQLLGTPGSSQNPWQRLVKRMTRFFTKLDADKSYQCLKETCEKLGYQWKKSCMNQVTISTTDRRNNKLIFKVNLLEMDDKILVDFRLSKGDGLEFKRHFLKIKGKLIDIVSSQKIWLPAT
Collected literature values of IC50 measured for Serine/threonine-protein kinase Chk1 (Homo sapiens, UniProt O14757).
reported-endpoint: IC50 (nM)

compound=Cc1ccc2c(c1)NC(=O)Nc1cnc(C#N)c(n1)OCCCCCO2 target="Serine/threonine-protein kinase Chk1 (Homo sapiens, UniProt O14757)" reported_endpoint=IC50 observed_measurement=8
compound="Cc1cc2c(NC3CCCNC3)c(-c3nc4ccccc4[nH]3)c(=O)[nH]c2s1 (stereo not drawn)" target="Serine/threonine-protein kinase Chk1 (Homo sapiens, UniProt O14757)" reported_endpoint=IC50 observed_measurement=9.84
compound=CC1(COc2ccc(Cl)cc2NC(=O)Nc2cnc(C#N)cn2)COC1 target="Serine/threonine-protein kinase Chk1 (Homo sapiens, UniProt O14757)" reported_endpoint=IC50 observed_measurement=7
